experimental.protocol: in vivo
Set-up: species or system mice
measurement.context: male, NU/J athymic nude, mouse, 3.81 MBq, total radioactivity, Biodistribution, Spleen
Peptide text beside a SMILES is read from it. * marks the point of attachment. DOTA = O=C(O)CN1CCN(CC(=O)O)CCN(CC(=O)*)CCN(CC(=O)O)CC1
reported.endpoint: tissue uptake at 0.5 h (%ID/g)
Write the number in %ID/g without appending the unit.

Q: Entry CC[C@H](C)[C@H](NC(=O)[C@H](Cc1ccc(O)cc1)NC(=O)[C@@H]1CCCN1C(=O)[C@@H](NC(=O)[C@H](CCCCN)NC(=O)CN1CCN(CC(=O)O)CCN(CC(=O)O)CCN(CC(=O)O)CC1)[C@@H](C)CC)C(=O)N[C@@H](CC(C)C)C(=O)O [^68Ga-DOTA-NMN, metal not drawn] ({DOTA}-KIPYIL-OH; C-terminus assumed) : reported tissue uptake at 0.5 h = ?
A: 0.35

----------
experimental.protocol: in vivo
Parameters: species or system mice
measurement.context: male, NU/J athymic nude, mouse, 3.81 MBq, total radioactivity, Biodistribution, Blood
Protocol: All experiments were conducted according to the guidelines of EU Directive 2010/63 approved by The Romanian National Sanitary Veterinary and Food Safety Authority (NSVFSA, approval no. 442/25.02.2019). […] All injected animals were monitored daily until an ideal size of tumour for biodistribution was reached (60–100 mm^3). […] All animals were sacrificed at 30 min p.i. and the organs were weighted and measured in a dose calibrator (Biodex Medical Systems Inc., Shirley, NY, USA). […]
reported.endpoint: tissue uptake at 0.5 h
The answer should read as a number with its unit following.

Q: Entry CSCC[C@H](NC(=O)[C@H](CC(C)C)NC(=O)[C@H](Cc1c[nH]cn1)NC(=O)CNC(=O)[C@@H](NC(=O)[C@H](C)NC(=O)[C@H](Cc1c[nH]c2ccccc12)NC(=O)[C@H](CCC(N)=O)NC(=O)CCOCCOCCOCCOCCNC(=O)CN1CCN(CC(=O)O)CCN(CC(=O)O)CCN(CC(=O)O)CC1)C(C)C)C(N)=O [^68Ga-DOTA-PEG(4)-BBN(7-14), metal not drawn] : reported tissue uptake at 0.5 h = ?
A: 6.48 %ID/g

----------
experimental.protocol: in vivo
Parameters: species or system mice
measurement.context: male, NU/J athymic nude, mouse, 3.81 MBq, total radioactivity, Biodistribution, Heart
Peptide text beside a SMILES is read from it. * marks the point of attachment. DOTA = O=C(O)CN1CCN(CC(=O)O)CCN(CC(=O)*)CCN(CC(=O)O)CC1
reported.endpoint: tissue uptake at 0.5 h (%ID/g)
Write the number in %ID/g without appending the unit.

Q: Entry CC[C@H](C)[C@H](NC(=O)[C@H](Cc1ccc(O)cc1)NC(=O)[C@@H]1CCCN1C(=O)[C@@H](NC(=O)[C@H](CCCCN)NC(=O)CN1CCN(CC(=O)O)CCN(CC(=O)O)CCN(CC(=O)O)CC1)[C@@H](C)CC)C(=O)N[C@@H](CC(C)C)C(=O)O [^68Ga-DOTA-NMN, metal not drawn] ({DOTA}-KIPYIL-OH; C-terminus assumed) : reported tissue uptake at 0.5 h = ?
A: 0.99

----------
experimental.protocol: in vivo
Parameters: species or system mice
measurement.context: male, NU/J athymic nude, mouse, 3.81 MBq, total radioactivity, Biodistribution, Heart
Peptide text beside a SMILES is read from it. * marks the point of attachment. DOTA = O=C(O)CN1CCN(CC(=O)O)CCN(CC(=O)*)CCN(CC(=O)O)CC1
reported.endpoint: tissue uptake at 0.5 h (%ID/g)
Write the number in %ID/g without appending the unit.

Q: Entry CC[C@H](C)[C@H](NC(=O)[C@H](Cc1ccc(O)cc1)NC(=O)[C@@H]1CCCN1C(=O)[C@@H](NC(=O)[C@H](CCCCN)NC(=O)CN1CCN(CC(=O)O)CCN(CC(=O)O)CCN(CC(=O)O)CC1)[C@@H](C)CC)C(=O)N[C@@H](CC(C)C)C(=O)O [^68Ga-DOTA-NMN, metal not drawn] ({DOTA}-KIPYIL-OH; C-terminus assumed) : reported tissue uptake at 0.5 h = ?
A: 1

----------
experimental.protocol: in vivo
Design: species or system mice
measurement.context: male, NU/J athymic nude, mouse, 3.81 MBq, total radioactivity, Biodistribution, Kidneys
Peptide text beside a SMILES is read from it. * marks the point of attachment. DOTA = O=C(O)CN1CCN(CC(=O)O)CCN(CC(=O)*)CCN(CC(=O)O)CC1
Reported tissue uptake at 0.5 h values are given for each entry in this list.
The answer should read as a number with its unit following.

compound | tissue uptake at 0.5 h
CC[C@H](C)[C@H](NC(=O)[C@H](Cc1ccc(O)cc1)NC(=O)[C@@H]1CCCN1C(=O)[C@@H](NC(=O)[C@H](CCCCN)NC(=O)CN1CCN(CC(=O)O)CCN(CC(=O)O)CCN(CC(=O)O)CC1)[C@@H](C)CC)C(=O)N[C@@H](CC(C)C)C(=O)O [^68Ga-DOTA-NMN, metal not drawn] ({DOTA}-KIPYIL-OH; C-terminus assumed) | 21.1 %ID/g

Note: attention shifts to another entry.
Q: Entry CSCC[C@H](NC(=O)[C@H](CC(C)C)NC(=O)[C@H](Cc1c[nH]cn1)NC(=O)CNC(=O)[C@@H](NC(=O)[C@H](C)NC(=O)[C@H](Cc1c[nH]c2ccccc12)NC(=O)[C@H](CCC(N)=O)NC(=O)CCOCCOCCOCCOCCNC(=O)CN1CCN(CC(=O)O)CCN(CC(=O)O)CCN(CC(=O)O)CC1)C(C)C)C(N)=O [^68Ga-DOTA-PEG(4)-BBN(7-14), metal not drawn] : reported tissue uptake at 0.5 h = ?
A: 18.7 %ID/g

----------
experimental.protocol: in vivo
Set-up: species or system mice
measurement.context: male, NU/J athymic nude, mouse, 3.81 MBq, total radioactivity, Biodistribution, Tumour (prostate)
Peptide text beside a SMILES is read from it. * marks the point of attachment. DOTA = O=C(O)CN1CCN(CC(=O)O)CCN(CC(=O)*)CCN(CC(=O)O)CC1
reported.endpoint: tissue uptake at 0.5 h (%ID/g)
Write the number in %ID/g without appending the unit.

Below are worked cases with known answers.
compound | reported.endpoint | assay.value
CC[C@H](C)[C@H](NC(=O)[C@H](Cc1ccc(O)cc1)NC(=O)[C@@H]1CCCN1C(=O)[C@@H](NC(=O)[C@H](CCCCN)NC(=O)CN1CCN(CC(=O)O)CCN(CC(=O)O)CCN(CC(=O)O)CC1)[C@@H](C)CC)C(=O)N[C@@H](CC(C)C)C(=O)O [^68Ga-DOTA-NMN, metal not drawn] ({DOTA}-KIPYIL-OH; C-terminus assumed) | tissue uptake at 0.5 h | 1.77
CSCC[C@H](NC(=O)[C@H](Cc1ccccc1)NC(=O)[C@H](Cc1c[nH]cn1)NC(=O)CNC(=O)[C@@H](NC(=O)[C@H](C)NC(=O)[C@H](Cc1c[nH]c2ccccc12)NC(=O)[C@H](CC(C)C)NC(=O)[C@H](CC(N)=O)NC(=O)CNC(=O)CN1CCN(CC(=O)O)CCN(CC(=O)O)CCN(CC(=O)O)CC1)[C@@H](C)O)C(N)=O [^68Ga-DOTA-NMB, metal not drawn] | tissue uptake at 0.5 h | 2.54

Note: attention shifts to another entry.
Q: Entry CSCC[C@H](NC(=O)[C@H](CC(C)C)NC(=O)[C@H](Cc1c[nH]cn1)NC(=O)CNC(=O)[C@@H](NC(=O)[C@H](C)NC(=O)[C@H](Cc1c[nH]c2ccccc12)NC(=O)[C@H](CCC(N)=O)NC(=O)CCOCCOCCOCCOCCNC(=O)CN1CCN(CC(=O)O)CCN(CC(=O)O)CCN(CC(=O)O)CC1)C(C)C)C(N)=O [^68Ga-DOTA-PEG(4)-BBN(7-14), metal not drawn] : reported tissue uptake at 0.5 h = ?
A: 3.78

----------
Reported tissue uptake at 0.5 h values are given for each entry in this list.
experimental.protocol: in vivo
Set-up: species or system mice
measurement.context: male, NU/J athymic nude, mouse, 3.81 MBq, total radioactivity, Biodistribution, Pancreas
Peptide text beside a SMILES is read from it. * marks the point of attachment. DOTA = O=C(O)CN1CCN(CC(=O)O)CCN(CC(=O)*)CCN(CC(=O)O)CC1

compound | tissue uptake at 0.5 h
CC[C@H](C)[C@H](NC(=O)[C@H](Cc1ccc(O)cc1)NC(=O)[C@@H]1CCCN1C(=O)[C@@H](NC(=O)[C@H](CCCCN)NC(=O)CN1CCN(CC(=O)O)CCN(CC(=O)O)CCN(CC(=O)O)CC1)[C@@H](C)CC)C(=O)N[C@@H](CC(C)C)C(=O)O [^68Ga-DOTA-NMN, metal not drawn] ({DOTA}-KIPYIL-OH; C-terminus assumed) | 0.58 %ID/g

Note: attention shifts to another entry.
Q: Entry CSCC[C@H](NC(=O)[C@H](Cc1ccccc1)NC(=O)[C@H](Cc1c[nH]cn1)NC(=O)CNC(=O)[C@@H](NC(=O)[C@H](C)NC(=O)[C@H](Cc1c[nH]c2ccccc12)NC(=O)[C@H](CC(C)C)NC(=O)[C@H](CC(N)=O)NC(=O)CNC(=O)CN1CCN(CC(=O)O)CCN(CC(=O)O)CCN(CC(=O)O)CC1)[C@@H](C)O)C(N)=O [^68Ga-DOTA-NMB, metal not drawn] : reported tissue uptake at 0.5 h = ?
A: 1.36 %ID/g
